Attribution: ChEMBL document CHEMBL1132295

Recorded Reduction for the following compounds
tested on: Mus musculus; test: Percentage reduction in plasma glucose after 6 days p.o. dosing at 30 mg/kg in db/db mice.; type: functional; conditions: route oral
Give a bare numeral; the unit % is implied.

Some entries whose results are on file:
{"COMPOUND": "O=C1[N-]C(=O)C(Cc2ccc(OC[C@@H]3CCCN3c3ccccn3)cc2)S1.[Na+] (stereo partly specified)", "UNIT_TEXT": "%", "Reduction": 65.5}
{"COMPOUND": "O=C1[N-]C(=O)C(Cc2ccc(OC[C@@H]3CCCN3c3ccc4ccccc4n3)cc2)S1.[Na+] (stereo partly specified)", "UNIT_TEXT": "%", "Reduction": 61.5}
{"COMPOUND": "Cl.O=C1NC(=O)/C(=C/c2ccc(OCC3CN(c4ccccn4)CCO3)cc2)S1 (stereo unspecified)", "UNIT_TEXT": "%", "Reduction": 35.5}
{"COMPOUND": "Cc1cc(N2CCC[C@H]2COc2ccc(CC3SC(=O)NC3=O)cc2)nc2ccccc12.Cl (stereo partly specified)", "UNIT_TEXT": "%", "Reduction": 25.25}
{"COMPOUND": "O=C1NC(=O)C(Cc2ccc(OC[C@@H]3CCCN3c3ccccn3)cc2)S1 (stereo partly specified)", "UNIT_TEXT": "%", "Reduction": 52.25}
{"COMPOUND": "Cc1cc(N2CCC[C@H]2COc2ccc(CC3SC(=O)NC3=O)cc2)nc2ccccc12 (stereo partly specified)", "UNIT_TEXT": "%", "Reduction": 40.5}
{"COMPOUND": "O=C(O)/C=C\\C(=O)O.O=C1NC(=O)/C(=C/c2ccc(OC[C@@H]3CCCN3c3ccccn3)cc2)S1", "UNIT_TEXT": "%", "Reduction": 63.6}
{"COMPOUND": "Cl.O=C1NC(=O)C(Cc2ccc(OC[C@@H]3CCCN3c3ccccn3)cc2)S1 (stereo partly specified)", "UNIT_TEXT": "%", "Reduction": 50.5}

Could you tell me which Reduction is on file for O=C1[N-]C(=O)C(Cc2ccc(OCC3CN(c4ccccn4)CCO3)cc2)S1.[Na+] (stereo unspecified) ?
63.5

Now give it for O=C1NC(=O)C(Cc2ccc(OCC3CN(c4ccccn4)CCO3)cc2)S1 (stereo unspecified) too.
57.5

Then what about the compound `Cl.O=C1NC(=O)/C(=C/c2ccc(OC[C@@H]3CCCN3c3ccccn3)cc2)S1` ?
70.8

Can you handle O=C(O)/C=C\C(=O)O.O=C1NC(=O)C(Cc2ccc(OC[C@@H]3CCCN3c3ccccn3)cc2)S1 (stereo partly specified) next?
62.5

Then this compound: `O=C1[N-]C(=O)/C(=C/c2ccc(OC[C@@H]3CCCN3c3ccccn3)cc2)S1.[Na+]`
56.5

Query Cl.O=C1NC(=O)C(Cc2ccc(OC[C@@H]3CCCN3c3ccc4ccccc4n3)cc2)S1 (stereo partly specified) next
15.75

Check Cc1cc(N2CCC[C@H]2COc2ccc(CC3SC(=O)[N-]C3=O)cc2)nc2ccccc12.[Na+] (stereo partly specified) too.
30.25

Follow-up entry: O=C1NC(=O)C(Cc2ccc(OC[C@@H]3CCCN3c3ccc4ccccc4n3)cc2)S1 (stereo partly specified)
72.25

###

test system: Mus musculus; assay: Compound was administered at a dose of 3 mg/kg/day to evaluate the percentage reduction in plasma triglyceride (TG) after 14 days of treatment in db/db mice via oral gavage.
OBSERVATION_TYPE: Reduction (%)
Answer with a number only, understood to be in %.

Use these answered entries as a reference point.
{"COMPOUND": "O=C1[N-]C(=O)C(Cc2ccc(OCC3CN(c4ccccn4)CCO3)cc2)S1.[Na+] (centres undefined)", "Reduction (%)": 39.25}
{"COMPOUND": "O=C(O)/C=C\\C(=O)O.O=C1NC(=O)C(Cc2ccc(OC[C@@H]3CCCN3c3ccccn3)cc2)S1 (some centres undefined)", "Reduction (%)": 41.5}
{"COMPOUND": "O=C(O)/C=C\\C(=O)O.O=C1NC(=O)/C(=C/c2ccc(OC[C@@H]3CCCN3c3ccccn3)cc2)S1", "Reduction (%)": 75}

For the compound shown here, CN(CCOc1ccc(CC2SC(=O)NC2=O)cc1)c1ccccn1 (stereo in doubt; form 1) [ROSIGLITAZONE] , give the reported Reduction.
47
